Values compiled from ChEMBL document CHEMBL1123616.

Recorded measurements of Thromboxane B2 (TxB2), one per entry
# Test system: Cavia porcellus
# PROTOCOL_DESCRIPTION: Inhibition of Collagen-induced Thromboxane (TXB2) in guinea pig whole blood ex vivo by oral 30 mg/kg administration of test compound.
# Format: functional
Quick note: give the figure in pg 0.1ml-1 500x10^3, leave out the unit.

Please review the following examples before continuing.
INSERT INTO measurements (compound, target_system, quantity_measured, units_label, quantitative_result) VALUES
  ('COc1ccc(COC[C@@H](Cn2ccnc2)OCCCCC(C)(C)C(=O)O)cc1', 'Cavia porcellus', 'Thromboxane B2 (TxB2)', 'pg 0.1ml-1 500x10^3', 572),
  ('COc1ccc(COCC(Cn2ccnc2)OCCCCCCC(=O)O)cc1 (centres undefined)', 'Cavia porcellus', 'Thromboxane B2 (TxB2)', 'pg 0.1ml-1 500x10^3', 923),
  ('COc1ccc(COCC(Cn2ccnc2)OCCCCC(C)(C)C(=O)O)cc1 (racemic)', 'Cavia porcellus', 'Thromboxane B2 (TxB2)', 'pg 0.1ml-1 500x10^3', 153),
  ('CCOC(=O)CCCCCCOC(COCc1ccc(OC)cc1)Cn1ccnc1 (centres undefined)', 'Cavia porcellus', 'Thromboxane B2 (TxB2)', 'pg 0.1ml-1 500x10^3', 2720),
  ('COc1ccc(COCC(Cn2ccnc2)OCCCCC(=O)O)cc1 (centres undefined)', 'Cavia porcellus', 'Thromboxane B2 (TxB2)', 'pg 0.1ml-1 500x10^3', 1047);

We next turn to a different compound, shown below.
// query Tell me the measured Thromboxane B2 (TxB2) of CCOC(=O)CCCCCCC(COCc1ccc(OC)cc1)Cn1ccnc1 (centres undefined) , please.
// result 683
